Source of measurements: patent US8193203B2

# study_system: human CXCR4 receptor (Homo sapiens)
# Construct: expressed in transfected cells
# Sequence (P61073 whole entry): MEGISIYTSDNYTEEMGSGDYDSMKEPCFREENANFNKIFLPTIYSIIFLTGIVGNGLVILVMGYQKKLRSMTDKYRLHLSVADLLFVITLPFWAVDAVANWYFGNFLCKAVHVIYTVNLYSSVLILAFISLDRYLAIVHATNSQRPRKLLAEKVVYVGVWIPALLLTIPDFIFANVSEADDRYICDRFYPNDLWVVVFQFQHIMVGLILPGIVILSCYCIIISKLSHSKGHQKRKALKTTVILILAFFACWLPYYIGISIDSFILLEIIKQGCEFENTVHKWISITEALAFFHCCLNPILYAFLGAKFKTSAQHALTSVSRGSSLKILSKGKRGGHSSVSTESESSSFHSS
# measurement_description: Measurement of intracellular Ca+2 responses (FLIPR), antagonism of the SDF-1α response
# Assay type: cell-based
# condition_summary: percent antagonism of SDF-1α 1.9 nM (EC65) response; HEK-Gqi5 human CXCR4 cells; value in brackets
endpoint_name: CXCR4 (% Inh) (%)
Numeric only. Scale: %

// known answers, use as guide
CCN(CC)CCCNc1nc(NC2CCN(Cc3cccc(C)c3N(C)C)CC2)c2ccccc2n1    100
CCN(CC)CCCNc1nc(NC2CCN(Cc3ccccc3N3CCCC3)CC2)c2cc(OC)c(OC)cc2n1    92
COc1cc2nc(NCCCN)nc(NC3CCN(Cc4c(OC)cccc4N(C)C)CC3)c2cc1OC    94
COc1cccc(N(C)C)c1CN1CCC(Nc2nc(NCCNC(=O)NC(C)C)nc3ccccc23)CC1    96
COc1cc2nc(N3CCCCCC3)nc(NC3CCN(Cc4c(OC)cccc4N(C)C)CC3)c2cc1OC    90

Problem: Which measured CXCR4 (% Inh) belongs to "COc1cc2nc(NCCCN(C)C)nc(NC3CCN(Cc4ccccc4N(C)C(C)C)CC3)c2cc1OC" , tested on human CXCR4 receptor (Homo sapiens)?
Result: 92

Problem: Try this compound too: "COc1cccc(N(C)C)c1CN1CCC(Nc2nc(NCC[C@@H]3CCCN3C(=O)OC(C)(C)C)nc3ccccc23)CC1"
Result: 75

Problem: What about "CCN(CC)CCCNc1nc(NC2CCN(Cc3ccccc3N)CC2)c2ccccc2n1" ?
Result: 68
